# targetOfAssay: Protein farnesyltransferase (Homo sapiens, UniProt P49354+P49356)
# protocolSummary: Concentration required to displace 50% of a radiolabeled farnesyltransferase inhibitor from FPTase in cultured Ha-Ras transformed RAT1 cells
# Format: functional, cell-based
// NB: equality with 40 nM counts as Condition not met; only IC50 strictly below is Condition met

[
  {
    "testSmiles": "N#Cc1ccc(Cn2cncc2CN2CCN(c3cccc(Cl)c3)C(=O)C2)cc1Oc1cccc(OCCO)c1",
    "groupLabel": "Condition met"
  },
  {
    "testSmiles": "N#Cc1ccc(Cn2cncc2CN2CCN(c3cccc(Cl)c3)C(=O)C2)cc1Oc1cccnc1",
    "groupLabel": "Condition met"
  },
  {
    "testSmiles": "N#Cc1ccc(Cn2cncc2CN2CCN(c3cccc(Cl)c3)C(=O)C2)cc1Sc1ccccc1",
    "groupLabel": "Condition not met"
  },
  {
    "testSmiles": "N#Cc1ccc(Cn2cncc2CN2CCN(c3cccc(Cl)c3)C(=O)C2)cc1Oc1ccccc1",
    "groupLabel": "Condition not met"
  }
]
